Hello, the source for this data is PubChem BioAssay (NCI), in case you need it.

- Tested on: NCI-H460 lung
- run.description: NCI tumour cell line growth inhibition, 48 h
observed.property: TGI

Recorded TGI, per entry:
compound	TGI
CCOC(=O)NNC(=O)NCc1ccccc1CNC(=O)NNC(=O)OCC	> 100 µM
Cc1ncc(C(=O)Nc2ccc(CN3CCN(C)CC3)c(C(F)(F)F)c2)cc1C#Cc1ccc(N)nc1	1.84 µM

Input: # lookup: TGI of COc1ccc(Nc2nc3ccccc3c3occc23)cc1
Output: > 50 µM

Input: # lookup: TGI of c1cc(-c2nnc(SSc3ncnc4nc[nH]c34)o2)ccn1
Output: > 100 µM

Input: # lookup: TGI of O=c1c2cc(-c3ccccc3)sc2ncn1Cc1ccc(Cl)c(Cl)c1
Output: > 100 µM

Input: # lookup: TGI of Cc1c(OCc2ccccc2)c(=O)ccn1CCc1c[nH]c2ccccc12
Output: > 100 µM

Input: # lookup: TGI of COc1ccc2nc3c(c(NCCCN(C)C)c2c1)CCCC3
Output: 24.3 µM

Input: # lookup: TGI of Cc1nc2ccc(Br)cc2c(=O)n1-c1ccc(NC2OCC(O)C(O)C2O)cc1 (stereo not drawn)
Output: > 100 µM

Input: # lookup: TGI of C[Si](C)(c1ccc(C(=O)O)cc1)c1ccc(C(=O)O)cc1
Output: > 100 µM

Input: # lookup: TGI of CCCc1c(C(=O)OCC)[nH]c(-c2ccc(-c3[nH]c(C(=O)OCC)c(CCC)c3C(=O)OCC)s2)c1C(=O)OCC
Output: > 100 µM

Input: # lookup: TGI of COc1ccc2c(c1)OCCc1cn[nH]c1-2
Output: > 100 µM

Input: # lookup: TGI of COC(=O)C1C(=O)CC2CCCCC21 (stereo not drawn)
Output: > 100 µM

Input: # lookup: TGI of NS(=O)(=O)c1ccc(N2N=C3c4ccccc4CC3C2c2cccs2)cc1 (stereo not drawn)
Output: > 100 µM

Input: # lookup: TGI of Nc1ccc(Nc2cc(=O)[nH]c(=O)[nH]2)cc1
Output: > 100 µM

* * *

- Tested on: SK-MEL-2 melanoma
- run.description: NCI tumour cell line growth inhibition, 48 h
Overview of recorded TGI for various molecules
The response must be a number in µM with no trailing unit.

Recorded TGI, per entry:
smiles.code	subject.of.test	TGI, µM
CN(C)CCNC(=O)c1cccc2cc3cc(O)ccc3nc12	SK-MEL-2 melanoma	3.81
Cc1ccc(-n2cc(-c3ccc(Cl)cc3)c3c(NN)ncnc32)cc1	SK-MEL-2 melanoma	47.1

Input: # lookup: TGI of CC[C@@]1(OC(=O)CN)C(=O)OCc2c1cc1n(c2=O)Cc2c-1nc1cc3c(cc1c2CCl)OCO3
Output: 5.04

Input: # lookup: TGI of CC1(c2cc3c(cc2Br)OCO3)SCCCS1
Output: 88.3

* * *

- System: HOP-62 NSCLC
- run.description: NCI tumour cell line growth inhibition, 48 h
Where a SMILES comes first, the peptide text is derived from it. The star is where a group is joined. Boc = CC(C)(C)OC(=O)*; OBn = c1ccc(CO*)cc1
Overview of recorded TGI for various molecules

Recorded TGI, per entry:
molecule	TGI
[O-][n+]1c(CN2CCCCC2)nc2cccc3c2c1-c1ccccc1-3	48.6 µM
NC(=O)[C@@H](CC1CC1)[C@@H](CCC(F)(F)F)C(=O)N[C@H]1N=C(c2ccccc2)c2cccc(F)c2NC1=O	> 100 µM
CC(C)CC(NC(=O)OC(C)(C)C)C(=O)NC(CC(=O)OCc1ccccc1)C(=O)OCc1ccccc1 (stereo not drawn) (Boc-Leu-Asp(OBn)-OBn; configuration not given here)	> 100 µM
COc1ccc2c(c1)OCCc1cn[nH]c1-2	> 100 µM
Cc1nc2ccc(Br)cc2c(=O)n1-c1ccc(NC2OCC(O)C(O)C2O)cc1 (configuration not stated)	> 100 µM
COc1ccc(C(=O)c2cc3c(N)c(C(=O)Nc4ccccc4)sc3nc2C)cc1	> 100 µM

Input: # lookup: TGI of C[S+](C)CC1OC(n2cnc3c(N)ncnc32)C(O)C1O (configuration not stated)
Output: > 225 µM

Input: # lookup: TGI of O=c1[nH]c(=O)n(COCCO)c2ccsc12
Output: > 100 µM

Input: # lookup: TGI of COC(=O)C1C(=O)CC2CCCCC21 (configuration not stated)
Output: > 100 µM

Input: # lookup: TGI of CN(C)CCNC(=O)c1cccc2cc3cc(O)ccc3nc12
Output: 2.94 µM

* * *

Overview of recorded TGI for various compounds
- Tested on: DLD-1 colon
- run.description: NCI tumour cell line growth inhibition, 48 h
The response must be a number in µM with no trailing unit.

smiles.code	subject.of.test	unit.descriptor	TGI
O=C(N/C(=C\c1ccc(Br)cc1)c1nc2ccccc2[nH]1)c1ccccc1	DLD-1 colon	µM	59.8

Now look at this one.
Input: # lookup: TGI of O=C1Nc2cc([N+](=O)[O-])c(Br)cc2C1=O
Output: 46.5

* * *

- Test system: SW-620 colon
- run.description: NCI tumour cell line growth inhibition, 48 h
observed.property: TGI (µM)
The response must be a number in µM with no trailing unit.

Recorded TGI, per entry:
compound	TGI [µM]
CN(Cc1ccc(C(F)(F)F)cc1)CC(O)C(=O)Nc1ccc(Cl)cc1 (centres undefined)	3.1
Cc1ncc(C(=O)Nc2ccc(CN3CCN(C)CC3)c(C(F)(F)F)c2)cc1C#Cc1ccc(N)nc1	1.36

Input: # lookup: TGI of OCC(CCc1ccccc1I)C1=CCC2(CC1)OCCO2 (centres undefined)
Output: 61.5

Input: # lookup: TGI of CC(C)(O)/C=C/C(=O)[C@](C)(O)[C@H]1[C@H](O)C[C@@]2(C)[C@@H]3CC=C4[C@@H](C[C@H](O)C(=O)C4(C)C)[C@]3(C)C(=O)C[C@]12C
Output: 9.68

* * *

- System: SR leukemia
- run.description: NCI tumour cell line growth inhibition, 48 h
observed.property: TGI (µM)
The response must be a number in µM with no trailing unit.

smiles.code	unit.descriptor	value
COc1ccc(NC(=O)/C=C(C)/C=C/C=C(C)/C=C/C2=C(C)CCCC2(C)C)cc1	µM	11.9

Input: # lookup: TGI of CCOC(=O)c1c(C)n(Cc2ccc(Cl)cc2Cl)c2c1cc1oc(=O)c(=O)n3cnc2c13
Output: 5.85

* * *

- Test system: NCI-H522 lung
- run.description: NCI tumour cell line growth inhibition, 48 h; in the data active means GI50 below about 0.43 µM; inactive means the rest
Can you answer with just one of these options? T (active), F (inactive)

Illustrative cases are given below, each with its answer.
smiles.code	category
O=C(Nc1ccc(-n2ccc3c(NC(=O)c4ccccc4)ncnc32)cc1)c1cccc(C(F)(F)F)c1	F
CCOC(=O)c1c(C)n(Cc2ccc(Cl)cc2Cl)c2c1cc1oc(=O)c(=O)n3cnc2c13	F
CC(C)c1nc(N(C)S(C)(=O)=O)nc(-c2ccc(F)cc2)c1/C=C/[C@@H](O)C[C@@H](O)CC(=O)O	F
CC1=C2C(=CC(C)(C)[C@@H]2O)C(=O)[C@](C)(O)C12CC2	T
COc1ccc(C(=O)c2cc3c(N)c(C(=O)Nc4ccccc4)sc3nc2C)cc1	F
Cn1cccc1-c1cc(-c2ccccc2)[nH]c(=O)c1C#N	F
O=C(/C=C/c1ccc(C(F)(F)F)cc1)Nc1ccc(C=C2c3ccccc3C(=O)c3ccccc32)cc1	F
Cc1ccc2nc(-c3ccc(OCC(=O)N=Nc4c(O)[nH]c5ccccc45)cc3)[nH]c2c1	F

Input: Entry C#CCNC(=S)N/N=C(\C)c1ccccn1 : call = ?
Output: F

Input: Entry CCN(Cc1cc(F)ccc1F)c1ccc(CO)c(Cl)c1 : call = ?
Output: F

* * *

Overview of recorded TGI for various compounds
- Tested on: SNB-75 CNS
- run.description: NCI tumour cell line growth inhibition, 48 h

Recorded TGI, per entry:
compound	TGI
CCCCCCCC(=O)OCCCC1[C@]2(C)CC[C@@]3(C)C([C@H](C)CCC=C(C)C)CC[C@]3(C)C2CC[C@]12OC2(C)C (stereo not given in full)	> 100 µM
Cc1ccc(S(=O)(=O)NC(=O)NC(CCCCN=C(N)N)C(=O)O)cc1 (stereo not given)	> 100 µM
CC1(C)CC2(C)CC1CC2(O)c1ccccc1 (stereo not given)	> 100 µM

Now look at this one.
Input: # lookup: TGI of CC(=O)OC12c3ccccc3C(c3ccccc31)C1C(=O)N(c3ccccn3)C(=O)C12 (stereo not given)
Output: > 100 µM

* * *

- Test system: LXFL 529 NSCLC
- run.description: NCI tumour cell line growth inhibition, 48 h
observed.property: TGI

compound	TGI
Clc1cccc(N2CCN(CCCN3CCc4c([nH]c5ccccc45)C3c3cccnc3)CC2)c1 (stereo unspecified)	24.4 µM
COc1ccc(-c2cc(C(=O)Nc3cc(C(F)(F)F)cc(C(F)(F)F)c3)c3ccccc3n2)cc1	20.9 µM
C#CCNC(=O)ON1C(=O)CCC1=O	> 100 µM
Cc1cc(C)nc(/C(=N\NC(N)=O)C(=O)Nc2nc3ccc(C)cc3s2)c1	> 100 µM
O=C(O)c1cc(=O)c2c([nH]c3ccccc32)s1	> 100 µM

Now look at this one.
Input: # lookup: TGI of O=c1c2ccccc2nc(-c2ccccc2)n1NC(=S)Nc1ccc(Cl)cc1
Output: > 100 µM
